# assay: physchem
# test.parameters: pH 7.4
logD listing for selected molecules.

{"molecule": "CC(C)[C@H]1CO[C@]23CCN(Cc4ccc(C(F)(F)F)cc4)C[C@H]2CCC(=O)N13 [Compound 11]", "logD": 3.9}
{"molecule": "CC(C)[C@H]1CO[C@]23CCN(Cc4ccc(OC(F)(F)F)cc4)C[C@H]2CCC(=O)N13 [Compound 12]", "logD": 3.4}

* * *

# Test system: streptomycin starved 18b nonreplicating Mtb (ss18b-lux)
# Format: cell-based, Mycobacterium tuberculosis
# test.parameters: 7 days of antibiotic exposure
property: bactericidal activity against nonreplicating ss18b-lux by cfu counting

{"smi": "CO[C@H]1/C=C/O[C@@]2(C)Oc3c(C)c(O)c4c(O)c(c(/C=N/N5CCN(C)CC5)c(O)c4c3C2=O)NC(=O)/C(C)=C\\C=C\\[C@H](C)[C@H](O)[C@@H](C)[C@@H](O)[C@@H](C)[C@H](OC(C)=O)[C@@H]1C", "subject.of.test": "streptomycin starved 18b nonreplicating Mtb (ss18b-lux)", "assay.value": "bactericidal"}
{"smi": "COc1nc2ccc(Br)cc2cc1[C@@H](c1ccccc1)[C@@](O)(CCN(C)C)c1cccc2ccccc12", "subject.of.test": "streptomycin starved 18b nonreplicating Mtb (ss18b-lux)", "assay.value": "bactericidal"}
